System: PC-3
assaySummary: Cytotoxicity against human PC3 cells at 10 uM after 72 hrs by relative to control
Assay type: functional
measurementContext: PC-3, 72 h
readout: inhibition at 10 µM (%)
Kindly provide the numeric value in % only, without the unit symbol.

These recorded examples may help you get a feel for the data.
>  <compound>
CC(C)OP(=O)(OC(C)C)C(NC(=S)N[C@@H](Cc1ccccc1)C(=O)NCc1ccccc1)c1ccccc1 (stereo partly specified)

>  <targetDesc>
PC-3

>  <readout>
inhibition at 10 µM

>  <unitDescriptor>
%

>  <numericValue>
21.8

$$$$
>  <compound>
CCOP(=O)(OCC)C(NC(=S)N[C@H](Cc1ccccc1)C(=O)NCc1ccccc1F)c1ccccc1 (stereo partly specified)

>  <targetDesc>
PC-3

>  <readout>
inhibition at 10 µM

>  <unitDescriptor>
%

>  <numericValue>
73.1

$$$$
>  <compound>
CC(C)OP(=O)(OC(C)C)C(NC(=S)N[C@@H](Cc1ccccc1)C(=O)NCc1ccc(F)cc1)c1ccccc1 (stereo partly specified)

>  <targetDesc>
PC-3

>  <readout>
inhibition at 10 µM

>  <unitDescriptor>
%

>  <numericValue>
31.4

$$$$

[Q] Provide the documented inhibition at 10 µM with PC-3 as the system for CCCOP(=O)(OCCC)C(NC(=S)N[C@@H](Cc1ccccc1)C(=O)NCc1ccc(F)cc1)c1ccccc1 (stereo partly specified)
[A] 28

[Q] Same question, CCOP(=O)(OCC)C(NC(=S)N[C@H](Cc1ccccc1)C(=O)NCc1ccccc1)c1ccccc1 (stereo partly specified) this time
[A] 56.9

[Q] Same question, `COc1cccc2c1C(=O)c1c(O)c3c(c(O)c1C2=O)C[C@@](O)(C(=O)CO)C[C@@H]3O[C@H]1C[C@H](N)[C@H](O)[C@H](C)O1` this time
[A] 98

The reported numbers originate from ChEMBL document CHEMBL1275305.
